- Procedure Text: cytotoxicity in HPDE-C7 cells, cell-based, fluorescence, HTS (AID 430);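 also: cells exposed to compound for 48 hours before viability readout; 0% = vehicle and 100% = reference cytotoxic drug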
- Condition Set: HPDE-C7 pancreatic duct cells viability, at 10 µM
The whole screen tested about 63,000 compounds, of which about 1,100 (1.7%) were called active. Rule as the data show it: active = cytotoxicity above about 50%; inactive = the rest. The sample holds actives, similar compounds and a random draw of the others, so the mix is not that of the screen. Results with a measured potency or affinity are listed apart.
Tick one outcome: active, inactive

These solved cases illustrate the format of a correct answer.
Substance Smiles | Answer Label
O=C(NCCCN1CCCC1=O)NC12CC3CC(CC(C3)C1)C2 | inactive
Cc1ccc2c(c1)nnn2C1CCN(CC(=O)Nc2ccccc2N2CCOCC2)CC1 | inactive
O=C(CCC1CCCCC1)N1CCN(Cc2ccc3c(c2)OCO3)CC1 | inactive
Cc1ccc(S(=O)(=O)Nc2ccc3nc(N)sc3c2)cc1 | inactive
N#C/C(=C(/O)COC(=O)c1ccc2c(c1)OCCO2)c1nc2ccccc2[nH]1 | inactive

Task item: Tell me the assay call for `Cc1nn(-c2ccccc2)c(C)c1C(=O)OC/C(O)=C(\C#N)c1nc2ccccc2[nH]1` please.
Reply: inactive

Task item: Entry `CCOC(=O)c1cnc2c(C(=O)OC)cccc2c1NCCN1CCOCC1` : call = ?
Reply: inactive

Task item: What classification did `CCOC(=O)c1c(C)[nH]c(C(=O)OC/C(O)=C(\C#N)c2nc3ccccc3[nH]2)c1C` end up with in this test?
Reply: active

Task item: Recorded test call requested for `CN(Cc1ccccc1)S(=O)(=O)c1ccc(C(=O)Nc2nnc(C3CC3)o2)cc1`
Reply: inactive

Task item: Tell me the recorded outcome of this test for `O=C(CSc1ccc2nnc(-c3ccccn3)n2n1)NCc1ccc2c(c1)OCO2` .
Reply: inactive

* * *

- Procedure Text: cytotoxicity in HPDE-C7 cells, cell-based, fluorescence, HTS (AID 430)
- Condition Set: HPDE-C7 pancreatic duct cells viability, at 10 µM, active compounds read high
Hit rate of the full screen: of about 63,000 compounds, about 1,100 (1.7%) were called active. This is one part of a sample in which actives are shown more often than they occur. Potency and affinity values are given separately.
Hi! Could you tag entries with cytotoxicity below 20% as T, and those at or above as F? Much appreciated.

A selection of reference data follows.
Molecule | Answer Label
CCC(C)(C)n1nnnc1C(c1cc2cc(OC)ccc2[nH]c1=O)N1CCc2ccccc21 (centres undefined) | T
CCn1c(=O)n(CC(=O)Nc2cccc(OC)c2)c(=O)c2ccccc21 | T
CCC(C)(C)n1nnnc1C(c1cc2ccc(OC)cc2[nH]c1=O)N1CCc2ccccc21 (centres undefined) | F
CCCC(c1nnnn1C(C)(C)CC)N(Cc1ccco1)Cc1cc2ccc(OC)cc2[nH]c1=O (centres undefined) | F
COc1ccc2[nH]c(=O)c(CN(Cc3nnnn3Cc3ccco3)C3CCCCC3)cc2c1 | F

Task item: Quick check: cytotoxicity of `O=C(O)c1[nH]c2ccc(Cl)cc2c1CC(=O)N1CCN(c2ccccc2)CC1` under 20%?
Reply: T

Task item: Does the reported cytotoxicity of the following molecule sit strictly below 20%? COc1ccc2cc(CN(Cc3ccco3)C(c3nnnn3C3CCCCC3)C(C)C)c(=O)[nH]c2c1 (centres undefined)
Reply: T

Task item: Report whether reported cytotoxicity is lower than 20% (strictly) for CCC(c1nnnn1Cc1ccco1)N(Cc1cc2cc(OC)ccc2[nH]c1=O)C1CCCCC1 (centres undefined)
Reply: F

Task item: Does the reported cytotoxicity of the following molecule sit strictly below 20%? CCC(c1nnnn1Cc1ccccc1)N(Cc1ccco1)Cc1cc2cc(OC)ccc2[nH]c1=O (centres undefined)
Reply: T

* * *

- Procedure Text: cytotoxicity in HPDE-C7 cells, cell-based, fluorescence, HTS (AID 430)
- Condition Set: HPDE-C7 pancreatic duct cells viability, at 10 µM, active compounds read high
Screen size: about 63,000 compounds; about 1,100 (1.7%) were called active. This is one part of a sample in which actives are shown more often than they occur. Measured potencies and affinities stand elsewhere.
Collected cytotoxicity values appear next to each entry.
Record the value in %, omitting the unit from your answer.

Some compounds with recorded cytotoxicity:
Compound | Result Type | Recorded Value
Cc1csc(NC(=O)CSc2nc(C)cs2)n1 | cytotoxicity | 3.7
CC(C)(C)NC(=O)CSc1nsc(SCC(=O)NC(C)(C)C)c1C#N | cytotoxicity | 1.2

Task item: If you can, please state the reported cytotoxicity value of `CC1(C)Cc2noc(N)c2C(C)(C)N1OC(=O)c1ccccc1` .
Reply: -5.7

Task item: Name the reported cytotoxicity value associated with the compound `COc1ccccc1-c1cc(C(=O)NCc2ccccc2)no1`
Reply: 17.1

Task item: Look up cytotoxicity for this compound: CCC(C)OC(=O)c1[nH]c2c(c1C)C(=O)CC(c1ccc(N(C)C)cc1)C2 (stereo unspecified)
Reply: 11.5

Task item: Look up cytotoxicity for this compound: `CC(C)Cc1ccc(C#N)c(SCC(N)=O)n1`
Reply: -5.5

* * *

- Procedure Text: cytotoxicity in HPDE-C7 cells, cell-based, fluorescence, HTS (AID 430);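 also: cells exposed to compound for 48 hours before viability readout; 0% = vehicle and 100% = reference cytotoxic drug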
- Condition Set: HPDE-C7 pancreatic duct cells viability, at 10 µM, active compounds read high
Among all 63,000 compounds or so, about 1,100 (1.7%) were called active. The list comes from a sample in which actives are over-represented; it also holds close analogues and randomly drawn compounds. Potency and affinity values are given separately.
Result Type: cytotoxicity

Compound | cytotoxicity
CN(c1ccccc1)S(=O)(=O)c1ccc(C(=O)Nc2nnc(-c3ccc(F)cc3)o2)cc1 | 58.9% (active)
CN(c1ccccc1)S(=O)(=O)c1ccc(C(=O)Nc2nccs2)cc1 | -7.3% (inactive)
O=C(CN1CCN(CCOCCO)CC1)N1c2ccccc2Sc2ccc(Cl)cc21 | -24.7% (inactive)

Here is another compound to look at.
Task item: For the compound shown here, COc1ccc2c(c1)c(C(O)CN1CCN(Cc3ccc4c(c3)OCO4)CC1)c(C)n2C (configuration not stated) , give the reported cytotoxicity.
Reply: 21.3% (inactive)

* * *

- Procedure Text: cytotoxicity in HPDE-C7 cells, cell-based, fluorescence, HTS (AID 430);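 also: cells exposed to compound for 48 hours before viability readout; 0% = vehicle and 100% = reference cytotoxic drug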
- Condition Set: HPDE-C7 pancreatic duct cells viability, at 10 µM, active compounds read high
The campaign covered roughly 63,000 compounds. About 1,100 (1.7%) were called active. The entries come from a sample that favours actives as a whole. Results with a measured potency or affinity are listed apart.
Entries and their cytotoxicity

The examples below pair each entry with its known result.
Compound | Recorded Value
COc1ccccc1N1CC(C(=O)OCC(=O)c2ccc(F)cc2)CC1=O (stereo unspecified) | -16.4% (inactive)
COCCCn1c(-c2ccsc2)nc2c1c(=O)[nH]c(=O)n2Cc1ccccc1 | -11% (inactive)
O=C(NC1CC2CCCC(C1)N2S(=O)(=O)c1ccccc1)c1ccccc1 (stereo unspecified) | -1.3% (inactive)
Cc1ccc(S(=O)(=O)NCC(=O)N2CCCCC2)cc1 | -15.4% (inactive)
CC(=O)Nc1ccc(C(=O)CSc2nc3ccccc3n2CC(=O)N2CCCC2)cc1 | 5% (inactive)
O=S(=O)(Nc1ccc2c(c1)nc1n2CCN(Cc2ccccc2)C1)c1ccccc1 | 2.6% (inactive)
COc1ccccc1Nc1nc2ccccc2n1C | -9% (inactive)
CCCSc1nc2c(cnn2-c2ccccc2)c(=O)[nH]1 | -0.6% (inactive)
Cn1c(=O)c(-c2ccccc2)nn2c3ccccc3nc12 | -4.7% (inactive)
CC/C(=N\O)c1ccc(OC)c(OC)c1 | -4.4% (inactive)

Okay, now this compound:
Task item: Request the reported cytotoxicity associated with `CCCCSc1nc2c(cnn2-c2ccc(F)cc2)c(=O)[nH]1`
Reply: -30.5% (inactive)

* * *

cytotoxicity values by entry
- Procedure Text: cytotoxicity in HPDE-C7 cells, cell-based, fluorescence, HTS (AID 430);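 also: cells exposed to compound for 48 hours before viability readout; 0% = vehicle and 100% = reference cytotoxic drug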
- Condition Set: HPDE-C7 pancreatic duct cells viability, at 10 µM, active compounds read high
Out of some 63,000 compounds screened, about 1,100 (1.7%) were called active. This excerpt belongs to a sample that is enriched for actives. Results with a measured potency or affinity are listed apart.

Study these solved cases before continuing.
Compound | cytotoxicity
CCCCCCSC1=C(C#N)C(c2ccc(C)o2)CC(=O)N1 (centres undefined) | -8% (inactive)
Cc1ccc(C2CC(=O)NC(SCc3ccccc3)=C2C#N)o1 (centres undefined) | 10.6% (inactive)
CCc1ccc(NC(=O)CSC2=C(C#N)C(c3ccco3)C3=C(CCCC3=O)N2)cc1 (centres undefined) | -0.7% (inactive)

Task item: Which cytotoxicity value is on record for Cc1nc2oc3c(NCC4CCCO4)ncnc3c2c2c1COC(C)(C)C2 (centres undefined) ?
Reply: -3.9% (inactive)

Task item: Can you share its cytotoxicity? I mean this compound: COC(=O)C1=C(N)Oc2cc(C)oc(=O)c2C1c1ccncc1 (centres undefined)
Reply: 0.6% (inactive)

Task item: Which cytotoxicity is listed for COc1cccc(C2=CC(c3ccc(N(C)C)cc3)n3ncnc3N2)c1 (centres undefined) ?
Reply: -4.9% (inactive)

Task item: cytotoxicity lookup needed for `O=c1[nH]c(-c2ccc(Cl)cc2)nc2c1cnn2-c1ccccc1` , thanks.
Reply: 3.6% (inactive)

Task item: # cytotoxicity lookup, item Cc1ccc(C2CC(=O)NC(SCC(=O)OCc3ccccc3)=C2C#N)o1 (centres undefined)
Reply: 59.6% (active)

Value source: PubChem BioAssay AID430
